- Test system: EMRSA16
- assay_info: MIC, microdilution broth method
- Format: cell-based, Staphylococcus aureus
- measurement_conditions: ESKAPE panel, Gram-positive; in µg/mL
Output 1.0 for records whose MIC, EMRSA16 is lower than 4, 0.0 for records at or above 4.

Q: Record C[C@H]1COc2c(N3CC[C@@H](Nc4cnccn4)C3)c(F)cc3c(=O)c(C(=O)O)cn1c23 [KSN-BL1] : is its MIC, EMRSA16 strictly below 4?
A: 1.0

Q: Same again, this time with C[C@H]1COc2c(N3CCN(c4ncc(F)cn4)CC3)c(F)cc3c(=O)c(C(=O)O)cn1c23 [ML-83-010]
A: 1.0

Q: Could you do the same for Cc1cc(C)nc(N[C@@H]2CCN(c3c(F)cc4c(=O)c(C(=O)O)cn5c4c3OC[C@@H]5C)C2)n1 [KSN-BL7] , please?
A: 1.0

Q: Another molecule to look at: C[C@H]1COc2c(N3CCC(N4CCN(C)CC4)C3)c(F)cc3c(=O)c(C(=O)O)cn1c23 (stereo partly drawn) [KSN-L31]
A: 0.0

Q: C[C@H]1COc2c(N3CC[C@@H](Nc4ncc(F)cn4)C3)c(F)cc3c(=O)c(C(=O)O)cn1c23 [KSN-L34] ?
A: 1.0
